The reader will find reported Vd values listed item by item below.
# measurementNotes: Volume of distribution in mice plasma was determined at 40 mg/kg after intravenous administration with 90% DMSO as vehicle
# Format: ADME, organism-based
# Parameters: dose 40 mg/kg, route intravenous
# measurementContext: mouse
Report the figure in L/kg without appending any unit label.

- recordSmiles: "O=c1[nH]c(Nc2ccccc2)nc2c1ncn2CCCCO"
  measurementUnit: "L/kg"
  recordedNumber: 2.7

Below: the item to evaluate.
Req: What value of Vd has been reported for the following molecule? "O=c1[nH]c(Nc2ccccc2)nc2c1ncn2CCO"
Resp: 3.3

----------
# assaySystem: UniProt:Q6L709
# Sequence (Q6L709 whole entry): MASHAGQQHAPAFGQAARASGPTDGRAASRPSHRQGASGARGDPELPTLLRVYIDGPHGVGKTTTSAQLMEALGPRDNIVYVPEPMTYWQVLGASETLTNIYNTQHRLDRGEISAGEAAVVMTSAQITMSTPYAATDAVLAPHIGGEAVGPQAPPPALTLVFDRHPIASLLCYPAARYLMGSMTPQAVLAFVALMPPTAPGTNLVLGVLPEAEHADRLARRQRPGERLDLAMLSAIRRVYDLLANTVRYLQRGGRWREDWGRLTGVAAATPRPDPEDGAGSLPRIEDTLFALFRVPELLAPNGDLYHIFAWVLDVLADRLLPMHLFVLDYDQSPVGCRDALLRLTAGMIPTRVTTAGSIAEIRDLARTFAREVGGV
Decide using IC50 alone. Strictly below 3 µM: 1. Equal to or above 3 µM: 0.

- compound: "COCCn1cnc2c(=O)[nH]c(Nc3ccccc3)nc21"
  labelValue: 1
- compound: "O=c1[nH]c(Nc2cccc(OC(F)(F)F)c2)nc2nc[nH]c12"
  labelValue: 0
- compound: "O=C(O)Cn1cnc2c(=O)[nH]c(Nc3ccccc3)nc21"
  labelValue: 0
- compound: "C=CCn1cnc2c(=O)[nH]c(Nc3ccccc3)nc21"
  labelValue: 1
- compound: "O=c1[nH]c(Nc2ccccc2)nc2c1ncn2CC(O)CSCCO (configuration not stated)"
  labelValue: 1

Next:
Req: Does the reported IC50 of "OCCn1cnc2c(O)nc(Nc3cccc(C(F)(F)F)c3)nc21" stay below 3 µM?
Resp: 0

----------
concentration values for the compounds below.
# Test system: Mus musculus
# measurementNotes: Plasma concentration at time-0 was measured in mice at 40 mg/kg after intravenous administration with saline(pH=11.4) as vehicle
# Assay type: ADME, organism-based
# Parameters: dose 40 mg/kg, route intravenous
# measurementContext: in vivo, pH 11.4, 40 mg/kg, read-out: Co

- compound: "O=c1[nH]c(Nc2cccc(C(F)(F)F)c2)nc2nc[nH]c12"
  assaySystem: "Mus musculus"
  result: "54.2 µM"

Req: Look up concentration: O=C1N=C(Nc2ccccc2)N=C2C1N=CN2[C@H]1C[C@H](O)[C@@H](CO)O1 (some centres not stated)
Resp: 174 µM

----------
# assaySystem: Thymidine kinase (Human alphaherpesvirus 1, UniProt Q9QNF7)
# Sequence (Q9QNF7 whole entry): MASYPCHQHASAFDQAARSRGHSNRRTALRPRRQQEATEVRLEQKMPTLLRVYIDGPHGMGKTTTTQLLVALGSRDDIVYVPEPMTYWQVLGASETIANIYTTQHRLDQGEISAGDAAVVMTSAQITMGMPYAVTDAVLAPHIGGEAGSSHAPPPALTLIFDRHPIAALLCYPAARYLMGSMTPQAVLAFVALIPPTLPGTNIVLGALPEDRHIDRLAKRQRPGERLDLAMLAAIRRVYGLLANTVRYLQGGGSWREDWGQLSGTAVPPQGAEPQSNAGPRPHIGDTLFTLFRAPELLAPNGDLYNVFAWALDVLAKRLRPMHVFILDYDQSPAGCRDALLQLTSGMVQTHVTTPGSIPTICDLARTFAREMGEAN
pIC50: −log10 of the molar value.
Threshold rule: pIC50 greater than or equal to 6 is yes; below that, no.

Some solved cases for reference:
- compound: "O=c1[nH]c(Nc2cccc(CC(F)(F)F)c2)nc2nc[nH]c12"
  labelValue: "yes"
- compound: "COCCn1cnc2c(=O)[nH]c(Nc3ccccc3)nc21"
  labelValue: "yes"
- compound: "O=C1N=C(Nc2cccc(C(F)(F)F)c2)N=C2C1N=CN2[C@H]1C[C@H](O)[C@@H](CO)O1 (stereo partly specified)"
  labelValue: "no"
- compound: "O=c1[nH]c(Nc2ccccc2)nc2c1ncn2CC(O)CO (stereo unspecified)"
  labelValue: "no"

Req: Dear colleague, could you confirm whether "O=C(O)Cn1cnc2c(=O)[nH]c(Nc3ccccc3)nc21" has pIC50 at or above 6?
Resp: no

Req: Please indicate if the recorded pIC50 for "O=c1[nH]c(Nc2cccc(C(Cl)=C(Cl)Cl)c2)nc2[nH]cnc12" meets or exceeds 6.
Resp: no

Req: State whether the measured pIC50 reaches 6, counting equality as reaching it, for "O=c1[nH]c(Nc2cccc(OC(F)(F)F)c2)nc2nc[nH]c12"
Resp: no

Data origin, for the record: ChEMBL document CHEMBL1128343
